Target: T1, cynomolgus monkey IL-33 expressed with a C-terminal hexahistidine tag (cynomolgus monkey)
T1 construct: also called MfIL-33-6His; Mf-IL-33-6His
T1 chain: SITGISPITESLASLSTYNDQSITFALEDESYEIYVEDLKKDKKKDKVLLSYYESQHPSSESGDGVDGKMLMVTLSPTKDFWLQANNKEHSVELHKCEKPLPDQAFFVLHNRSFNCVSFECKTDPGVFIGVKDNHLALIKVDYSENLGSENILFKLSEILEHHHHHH
Test: SPR 37C pH7.4, mAb captured
// values below are reported kon

Binder	Output Unit	kon
H4H9633P (antibody, human IgG4, V domains shown, Human IgG4 Fc (H4H)) VH: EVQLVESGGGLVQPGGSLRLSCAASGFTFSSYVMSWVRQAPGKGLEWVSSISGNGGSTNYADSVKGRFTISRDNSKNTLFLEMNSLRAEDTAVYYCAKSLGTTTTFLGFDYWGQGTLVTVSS VL: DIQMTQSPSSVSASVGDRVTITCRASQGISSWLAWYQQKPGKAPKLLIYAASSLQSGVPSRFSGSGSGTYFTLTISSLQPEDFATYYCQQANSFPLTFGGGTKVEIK	M⁻¹ s⁻¹	468000
H1M9559N (antibody, mouse IgG1, V domains shown, Human variable domains, mouse IgG1 Fc (H1M)) VH: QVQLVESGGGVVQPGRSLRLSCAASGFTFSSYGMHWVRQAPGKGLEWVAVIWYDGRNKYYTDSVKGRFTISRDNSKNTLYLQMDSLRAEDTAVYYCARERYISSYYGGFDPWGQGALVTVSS VL: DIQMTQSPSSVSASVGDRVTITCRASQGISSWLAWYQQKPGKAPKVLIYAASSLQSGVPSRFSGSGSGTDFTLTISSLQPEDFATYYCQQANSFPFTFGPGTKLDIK	M⁻¹ s⁻¹	493000
H1M9566N (antibody, mouse IgG1, V domains shown, Human variable domains, mouse IgG1 Fc (H1M)) VH: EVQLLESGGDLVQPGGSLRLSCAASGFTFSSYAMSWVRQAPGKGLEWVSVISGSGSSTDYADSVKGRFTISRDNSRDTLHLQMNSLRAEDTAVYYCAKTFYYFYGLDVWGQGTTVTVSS VL: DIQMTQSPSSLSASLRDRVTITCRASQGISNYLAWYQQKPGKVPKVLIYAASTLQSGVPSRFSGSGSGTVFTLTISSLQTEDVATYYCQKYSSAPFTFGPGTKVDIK	M⁻¹ s⁻¹	399000
H4H9670P (antibody, V domains shown, Human IgG4 Fc (H4H)) VH: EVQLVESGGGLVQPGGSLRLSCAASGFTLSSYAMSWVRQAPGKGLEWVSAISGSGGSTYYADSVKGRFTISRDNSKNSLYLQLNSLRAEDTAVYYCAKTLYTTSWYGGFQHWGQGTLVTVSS VL: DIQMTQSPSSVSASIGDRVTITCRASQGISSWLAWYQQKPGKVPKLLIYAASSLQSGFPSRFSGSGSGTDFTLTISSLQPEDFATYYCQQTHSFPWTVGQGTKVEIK	M⁻¹ s⁻¹	735000
H4H9666P (antibody, human IgG4, V domains shown, Human IgG4 Fc (H4H)) VH: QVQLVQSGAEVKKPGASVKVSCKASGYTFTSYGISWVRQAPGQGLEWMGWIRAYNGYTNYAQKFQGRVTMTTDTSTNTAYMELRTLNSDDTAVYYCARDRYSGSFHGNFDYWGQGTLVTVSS VL: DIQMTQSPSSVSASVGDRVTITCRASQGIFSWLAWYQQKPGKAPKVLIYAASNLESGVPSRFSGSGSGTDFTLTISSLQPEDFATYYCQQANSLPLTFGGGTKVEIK	M⁻¹ s⁻¹	432000
H4H9671P (antibody, human IgG4, V domains shown, Human IgG4 Fc (H4H)) VH: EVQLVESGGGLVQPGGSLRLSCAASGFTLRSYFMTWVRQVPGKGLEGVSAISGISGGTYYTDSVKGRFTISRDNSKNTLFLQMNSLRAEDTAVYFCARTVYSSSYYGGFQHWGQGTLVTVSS VL: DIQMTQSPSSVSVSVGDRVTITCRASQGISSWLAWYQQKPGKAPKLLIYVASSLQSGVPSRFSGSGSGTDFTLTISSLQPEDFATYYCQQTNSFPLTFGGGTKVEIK	M⁻¹ s⁻¹	1.2e+06
H4H9676P (antibody, human IgG4, V domains shown, Human IgG4 Fc (H4H)) VH: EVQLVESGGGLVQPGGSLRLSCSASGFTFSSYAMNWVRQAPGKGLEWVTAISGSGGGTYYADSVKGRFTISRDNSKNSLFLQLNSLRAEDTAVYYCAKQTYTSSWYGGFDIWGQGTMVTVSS VL: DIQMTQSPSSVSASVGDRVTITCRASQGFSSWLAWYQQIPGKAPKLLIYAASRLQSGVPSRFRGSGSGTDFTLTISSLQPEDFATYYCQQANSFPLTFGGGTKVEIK	M⁻¹ s⁻¹	1.87e+06
H4H9667P (antibody, human IgG4, V domains shown, Human IgG4 Fc (H4H)) VH: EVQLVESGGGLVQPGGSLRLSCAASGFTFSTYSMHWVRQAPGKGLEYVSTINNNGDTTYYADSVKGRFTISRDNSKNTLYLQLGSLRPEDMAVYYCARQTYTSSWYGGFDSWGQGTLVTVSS VL: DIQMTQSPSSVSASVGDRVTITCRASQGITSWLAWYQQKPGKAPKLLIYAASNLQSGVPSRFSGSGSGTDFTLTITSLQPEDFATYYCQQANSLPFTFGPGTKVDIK	M⁻¹ s⁻¹	681000
H4H9662P (antibody, V domains shown, Human IgG4 Fc (H4H)) VH: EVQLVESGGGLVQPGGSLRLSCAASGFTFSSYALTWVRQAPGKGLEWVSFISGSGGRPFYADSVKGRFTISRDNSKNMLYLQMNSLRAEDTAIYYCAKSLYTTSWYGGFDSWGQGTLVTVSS VL: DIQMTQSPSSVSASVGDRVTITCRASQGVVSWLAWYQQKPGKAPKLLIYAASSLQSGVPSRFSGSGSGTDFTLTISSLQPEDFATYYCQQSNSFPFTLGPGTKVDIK	M⁻¹ s⁻¹	707000
